Provide the recorded selectivity ratio for the entries that follow.
Experiment: Selectivity index, ratio of IC50 for cytotoxicity against human MRC5 cells to IC50 for antitrypanosomal activity against Trypanosoma brucei bloodstream form
Assay type: toxicity, cell-based
Conditions: MRC5 cells versus Trypanosoma brucei bloodstream form, read-out: Ratio IC50

1. C[n+]1cccc(N2C(=O)c3ccc4c5c(ccc(c35)C2=O)C(=O)N(c2ccc[n+](C)c2)C4=O)c1 :: 0.41
2. CC(CN1C(=O)c2ccc3c4c(ccc(c24)C1=O)C(=O)N(CC(C)N1CCN(C)CC1)C3=O)N1CCN(C)CC1 (stereo not drawn) :: 8.2
3. O=C1c2ccc3c4c(ccc(c24)C(=O)N1c1ccc(N2CCOCC2)cc1)C(=O)N(c1ccc(N2CCOCC2)cc1)C3=O :: 4.88

Hi team, please reply with selectivity ratio for each item in this list.
1. CN1CCN(CC2(CN3C(=O)c4ccc5c6c(ccc(c46)C3=O)C(=O)N(CC3(CN4CCN(C)CC4)CC3)C5=O)CC2)CC1
2. CN1CCN(C(C)(C)CN2C(=O)c3ccc4c5c(ccc(c35)C2=O)C(=O)N(CC(C)(C)N2CCN(C)CC2)C4=O)CC1
3. C[n+]1ccc(N2C(=O)c3ccc4c5c(ccc(c35)C2=O)C(=O)N(c2cc[n+](C)cc2)C4=O)cc1
4. O=C1c2ccc3c4c(ccc(c24)C(=O)N1CC(c1ccccn1)N1CCOCC1)C(=O)N(CC(c1ccccn1)N1CCOCC1)C3=O (stereo not drawn)
5. CN1CCN(CCN2C(=O)c3ccc4c5c(ccc(c35)C2=O)C(=O)N(CCN2CCN(C)CC2)C4=O)CC1
6. CN1CCN(c2cccc(N3C(=O)c4ccc5c6c(ccc(c46)C3=O)C(=O)N(c3cccc(N4CCN(C)CC4)c3)C5=O)c2)CC1
7. C[n+]1ccc(CN2C(=O)c3ccc4c5c(ccc(c35)C2=O)C(=O)N(Cc2cc[n+](C)cc2)C4=O)cc1

Output:
1. 3.6
2. 3.5
3. > 1.31
4. 1.6
5. 14.2
6. 7.91
7. 0.49

Provide each entry's selectivity ratio from the list below.
1. C[n+]1cc(N2C(=O)c3ccc4c5c(ccc(c35)C2=O)C(=O)N(c2cc3ccccc3[n+](C)c2)C4=O)cc2ccccc21
2. C[n+]1cccc2c(N3C(=O)c4ccc5c6c(ccc(c46)C3=O)C(=O)N(c3cccc4c3ccc[n+]4C)C5=O)cccc21
3. O=C1c2ccc3c4c(ccc(c24)C(=O)N1CCCN1CCOCC1)C(=O)N(CCCN1CCOCC1)C3=O

Output:
1. 0.17
2. 0.79
3. 20.8

###

Test system: Quadruplex DNA
Experiment: Binding affinity to G-quadruplex telomeric DNA FMycT (5'-duplex GGG TTAGGG TTAGGG TTAGGG-3') (unknown origin) assessed as stabilization by measuring change in melting temperature at 10 uM in potassium buffer by FRET melting assay
Assay type: nucleic-acid assay
Hi, to clarify the labels: MET covers ΔTm from 10 °C upward, NOT MET covers anything below 10 °C.

1) O=C1c2ccc3c4c(ccc(c24)C(=O)N1CC(c1ccccn1)N1CCOCC1)C(=O)N(CC(c1ccccn1)N1CCOCC1)C3=O (configuration not stated) :: NOT MET

Task: Answer whether ΔTm of `CN1CCN(C(C)(C)CN2C(=O)c3ccc4c5c(ccc(c35)C2=O)C(=O)N(CC(C)(C)N2CCN(C)CC2)C4=O)CC1` is greater than or equal to 10 °C.
Output: MET

Task: Test whether the compound `C[n+]1ccc(N2C(=O)c3ccc4c5c(ccc(c35)C2=O)C(=O)N(c2cc[n+](C)cc2)C4=O)cc1` records ΔTm of 10 °C or higher.
Output: NOT MET

Task: Hi team, for `CN1CCN(CCCN2C(=O)c3ccc4c5c(ccc(c35)C2=O)C(=O)N(CCCN2CCN(C)CC2)C4=O)CC1` , is the recorded ΔTm at or above 10 °C?
Output: MET

Task: Identify whether the reported ΔTm of the following compound is 10 °C or greater: `CN1CCN(c2cccc(N3C(=O)c4ccc5c6c(ccc(c46)C3=O)C(=O)N(c3cccc(N4CCN(C)CC4)c3)C5=O)c2)CC1`
Output: NOT MET

Task: Does the reported ΔTm for `CN1CCN(CC2(CN3C(=O)c4ccc5c6c(ccc(c46)C3=O)C(=O)N(CC3(CN4CCN(C)CC4)CC3)C5=O)CC2)CC1` fall at or above the 10 °C mark?
Output: MET

Task: Tell me whether ΔTm is at least 10 °C here: `CN1CCN(CCN2C(=O)c3ccc4c5c(ccc(c35)C2=O)C(=O)N(CCN2CCN(C)CC2)C4=O)CC1`
Output: MET

###

Test system: Quadruplex DNA
Experiment: Binding affinity to Trypanosoma brucei G-quadruplex telomeric DNA FEBR1T (5'-duplex GGG TTAGGG TTAGGG TTAGGG-3') assessed as stabilization by measuring change in melting temperature at 10 uM in potassium buffer by FRET melting assay
Assay type: nucleic-acid assay
Kind request: treat 4 °C as inclusive, so ΔTm at 4 °C or higher is 1, anything lower is -1.

Task: Check this molecule for ΔTm at or above 4 °C: `O=C1c2ccc3c4c(ccc(c24)C(=O)N1CCCN1CCOCC1)C(=O)N(CCCN1CCOCC1)C3=O`
Output: -1

Task: Hello, I need to know if `CN1CCN(c2ccc(N3C(=O)c4ccc5c6c(ccc(c46)C3=O)C(=O)N(c3ccc(N4CCN(C)CC4)cc3)C5=O)cc2)CC1` has measured ΔTm not below 4 °C. Thanks!
Output: -1

Task: In plain terms: is recorded ΔTm at least 4 °C for `C[n+]1ccc(CN2C(=O)c3ccc4c5c(ccc(c35)C2=O)C(=O)N(Cc2cc[n+](C)cc2)C4=O)cc1` ?
Output: 1

Task: Item `C[n+]1cccc2c(N3C(=O)c4ccc5c6c(ccc(c46)C3=O)C(=O)N(c3cccc4c3ccc[n+]4C)C5=O)cccc21` with ΔTm of 4 °C or above?
Output: -1

Task: Determine whether this molecule has ΔTm no lower than 4 °C: `C[n+]1ccc(N2C(=O)c3ccc4c5c(ccc(c35)C2=O)C(=O)N(c2cc[n+](C)cc2)C4=O)cc1`
Output: -1

Task: Decide: ΔTm of `C[n+]1cccc(N2C(=O)c3ccc4c5c(ccc(c35)C2=O)C(=O)N(c2ccc[n+](C)c2)C4=O)c1` >= 4 °C?
Output: -1

Task: Evaluate CC(CCN1C(=O)c2ccc3c4c(ccc(c24)C1=O)C(=O)N(CCC(C)N1CCN(C)CC1)C3=O)N1CCN(C)CC1 (stereo not drawn) : ΔTm at minimum 4 °C?
Output: 1

###

Kindly supply the reported selectivity ratio values for the records listed here.
Experiment: Selectivity index, ratio of IC50 for cytotoxicity against human MRC5 cells to IC50 for cytotoxicity against human HeLa cells
Type: toxicity, cell-based
Details: MRC5 cells versus HeLa cells, read-out: Ratio IC50
One number for each entry.

Here are 2 molecules together with their reported answers.
1. CC(CCN1C(=O)c2ccc3c4c(ccc(c24)C1=O)C(=O)N(CCC(C)N1CCN(C)CC1)C3=O)N1CCN(C)CC1 (configuration not stated) :: 3.54
2. CN1CCN(c2cccc(N3C(=O)c4ccc5c6c(ccc(c46)C3=O)C(=O)N(c3cccc(N4CCN(C)CC4)c3)C5=O)c2)CC1 :: 3.09

Return reported selectivity ratio values for all items listed beneath this line.
1. CN1CCN(CCN2C(=O)c3ccc4c5c(ccc(c35)C2=O)C(=O)N(CCN2CCN(C)CC2)C4=O)CC1
2. C[n+]1cccc2cc(N3C(=O)c4ccc5c6c(ccc(c46)C3=O)C(=O)N(c3ccc4c(ccc[n+]4C)c3)C5=O)ccc21
3. CN1CCN(c2ccc(N3C(=O)c4ccc5c6c(ccc(c46)C3=O)C(=O)N(c3ccc(N4CCN(C)CC4)cc3)C5=O)cc2)CC1
4. O=C1c2ccc3c4c(ccc(c24)C(=O)N1c1ccccc1N1CCOCC1)C(=O)N(c1ccccc1N1CCOCC1)C3=O
5. CN1CCN(CC2(CN3C(=O)c4ccc5c6c(ccc(c46)C3=O)C(=O)N(CC3(CN4CCN(C)CC4)CC3)C5=O)CC2)CC1

Output:
1. 6.4
2. 0.031
3. 9.72
4. 2.34
5. 0.85

###

Assay: Binding affinity to hairpin duplex DNA F10T (unknown origin) assessed as stabilization by measuring change in melting temperature at 10 uM in potassium buffer by FRET melting assay
Record form. Attribute: ΔTm. Fill in for each entry.
Answers are plain numbers, in °C.

Here is how some compounds turned out for ΔTm.
1) CN1CCN(c2cccc(N3C(=O)c4ccc5c6c(ccc(c46)C3=O)C(=O)N(c3cccc(N4CCN(C)CC4)c3)C5=O)c2)CC1 :: 0.1
2) CN1CCN(CCCN2C(=O)c3ccc4c5c(ccc(c35)C2=O)C(=O)N(CCCN2CCN(C)CC2)C4=O)CC1 :: 3
3) CN1CCN(CC2(CN3C(=O)c4ccc5c6c(ccc(c46)C3=O)C(=O)N(CC3(CN4CCN(C)CC4)CC3)C5=O)CC2)CC1 :: 0.5
4) CN1CCN(c2ccc(N3C(=O)c4ccc5c6c(ccc(c46)C3=O)C(=O)N(c3ccc(N4CCN(C)CC4)cc3)C5=O)cc2)CC1 :: -0.1
5) CC(CCN1C(=O)c2ccc3c4c(ccc(c24)C1=O)C(=O)N(CCC(C)N1CCN(C)CC1)C3=O)N1CCN(C)CC1 (configuration not stated) :: 4.5
6) CC(CN1C(=O)c2ccc3c4c(ccc(c24)C1=O)C(=O)N(CC(C)N1CCN(C)CC1)C3=O)N1CCN(C)CC1 (configuration not stated) :: 1.7

Task: Tell me its ΔTm given `C[n+]1cccc2cc(N3C(=O)c4ccc5c6c(ccc(c46)C3=O)C(=O)N(c3ccc4c(ccc[n+]4C)c3)C5=O)ccc21` as the entry.
Output: 1.4
